Recorded chromatographic logP, one value per entry.
experiment: log P determination by HPLC (EEC Directive 79/831 Annex V. A8); type: physicochemical; settings: gradient of acetonitrile/0.1% aqueous phosphoric acid; HPLC gradient method, acetonitrile/0.1% aqueous phosphoric acid (pH 2.3); read-out: HPLC: log P
Output spec: single numeric token, no unit.

Some solved entries appear below for comparison.
N#Cc1cnn2c(Cl)c(-c3ccc(F)cc3Cl)c(Cl)nc12 | 3.48
O=Cc1cnn2c(N3CCOCC3)c(-c3ccc(F)cc3Cl)c(Cl)nc12 | 2.94
C#Cc1cnn2c(N3CCC(C)CC3)c(-c3ccc(F)cc3Cl)c(Cl)nc12 | 5.31
N#Cc1cnn2c(N3CCOCC3)c(-c3ccc(F)cc3Cl)c(Cl)nc12 | 3.33

Requested field: chromatographic logP. Item: `CC(C)/C=C/c1cnn2c(N3CCC(C)CC3)c(-c3ccc(F)cc3Cl)c(Cl)nc12`
7.21

Requested field: chromatographic logP. Item: `C=Cc1cnn2c(N3CCC(C)CC3)c(-c3ccc(F)cc3Cl)c(Cl)nc12`
6.07

---

assay: log P determination by HPLC (EEC Directive 79/831 Annex V. A8); type: physicochemical; settings: HPLC gradient method, acetonitrile/0.1% aqueous phosphoric acid (pH 2.3); read-out: HPLC: log P
PROPERTY_NAME: chromatographic logP
Output spec: single numeric token, no unit.

Requested field: chromatographic logP. Item: CC(Nc1c(-c2ccccc2Cl)c(Cl)nc2c(/C(Cl)=C/C=O)cnn12)C(C)(C)C (stereo not shown)
5.98
